system: anti-CD28 scFv (VH - linker 1 - VL) (biotinylated (site not stated))
Sequence (scFv, as listed by the source): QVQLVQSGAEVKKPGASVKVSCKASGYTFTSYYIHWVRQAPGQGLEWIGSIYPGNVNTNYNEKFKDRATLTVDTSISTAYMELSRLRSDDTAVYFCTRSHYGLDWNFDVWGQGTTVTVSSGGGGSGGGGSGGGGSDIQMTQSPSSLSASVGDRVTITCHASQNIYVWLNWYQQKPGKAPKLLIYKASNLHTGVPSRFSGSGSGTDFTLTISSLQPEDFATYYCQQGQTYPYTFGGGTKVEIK
experiment-description: phage ELISA as above; wells pre-incubated with soluble CD28 (competitor)
Each entry below carries its reported CD28 scFv signal in presence of CD28.
Reply with the value as a number alone.

Worked examples, 3 binders total:
{"binder": "MDWCPWFLWNECFN [Phage-350 clonal phage peptide MDWCPWFLWNECFN]", "CD28 scFv signal in presence of CD28": 0.279}
{"binder": "MSWCPIDLWSECFA [Phage-340 clonal phage peptide MSWCPIDLWSECFA]", "CD28 scFv signal in presence of CD28": 0.148}
{"binder": "MDWCPRHLWVHCFS [Phage-344 clonal phage peptide MDWCPRHLWVHCFS]", "CD28 scFv signal in presence of CD28": 0.173}

Which measured CD28 scFv signal in presence of CD28 value corresponds to MDWCPRDLWTQCFF [Phage-343 clonal phage peptide MDWCPRDLWTQCFF] ?
0.119
